Data origin, for the record: patent US11896592B2

Overview of reported pIC50 across a group of compounds:
Molecular target: Recombinant human Met (c-Met) (Homo sapiens, UniProt P08581)
Construct: purchased Invitrogen PV3143
Sequence (P08581 956-1390 limits assumed): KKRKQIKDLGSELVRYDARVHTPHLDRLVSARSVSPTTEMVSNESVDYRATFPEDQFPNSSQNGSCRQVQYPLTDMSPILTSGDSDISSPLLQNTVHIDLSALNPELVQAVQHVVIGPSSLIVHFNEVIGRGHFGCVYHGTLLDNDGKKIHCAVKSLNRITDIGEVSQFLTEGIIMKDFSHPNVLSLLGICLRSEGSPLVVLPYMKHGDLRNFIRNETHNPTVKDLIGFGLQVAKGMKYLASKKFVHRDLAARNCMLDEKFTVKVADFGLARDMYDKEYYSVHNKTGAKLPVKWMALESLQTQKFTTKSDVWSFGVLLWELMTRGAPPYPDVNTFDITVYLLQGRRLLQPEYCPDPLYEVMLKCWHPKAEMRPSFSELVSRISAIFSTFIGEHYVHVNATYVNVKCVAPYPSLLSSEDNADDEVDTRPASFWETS
Assay: Inhibition of c-Met kinase activity using Transcreener FP assay
Assay type: biochemical
Conditions: Poly E4Y substrate, 28° C. 45 min, read-out: IC50, inhibition of c-Met kinase activity
pIC50: −log10 of the molar value.

Below: 4 compounds and their reported pIC50.
Exercise: Fill in the recorded pIC50 for this compound, with Recombinant human Met (c-Met) (Homo sapiens, UniProt P08581) as test system: Cn1cc(-c2cnc3nnn(Cc4ccc5ncsc5n4)c3n2)cn1
Key: 6.00 to 7.00

Exercise: Fill in the recorded pIC50 for this compound, with Recombinant human Met (c-Met) (Homo sapiens, UniProt P08581) as test system: OCCn1cc(-c2cnc3nnn(Cc4csc5ncccc45)c3n2)cn1
Key: 6.00 to 7.00

Exercise: Fill in the recorded pIC50 for this compound, with Recombinant human Met (c-Met) (Homo sapiens, UniProt P08581) as test system: COc1cc(Nc2cnc3nnn(Cc4ccc5ncccc5c4)c3n2)ccn1
Key: 7.00 to 9.00

Exercise: Fill in the recorded pIC50 for this compound, with Recombinant human Met (c-Met) (Homo sapiens, UniProt P08581) as test system: OCCNc1ccnc(Nc2cnc3nnn(Cc4ccc5ncccc5c4)c3n2)c1
Key: 6.00 to 7.00

Others:
Exercise: Fill in the recorded pIC50 for this compound, with Recombinant human Met (c-Met) (Homo sapiens, UniProt P08581) as test system: O=C(O)Cn1cc(-c2ccc3nnn(Cc4ccc5ncccc5c4)c3n2)cn1
Key: 6.00 to 7.00
